molecular target: Factor X, P00742
Sequence (P00742 whole entry, looked up): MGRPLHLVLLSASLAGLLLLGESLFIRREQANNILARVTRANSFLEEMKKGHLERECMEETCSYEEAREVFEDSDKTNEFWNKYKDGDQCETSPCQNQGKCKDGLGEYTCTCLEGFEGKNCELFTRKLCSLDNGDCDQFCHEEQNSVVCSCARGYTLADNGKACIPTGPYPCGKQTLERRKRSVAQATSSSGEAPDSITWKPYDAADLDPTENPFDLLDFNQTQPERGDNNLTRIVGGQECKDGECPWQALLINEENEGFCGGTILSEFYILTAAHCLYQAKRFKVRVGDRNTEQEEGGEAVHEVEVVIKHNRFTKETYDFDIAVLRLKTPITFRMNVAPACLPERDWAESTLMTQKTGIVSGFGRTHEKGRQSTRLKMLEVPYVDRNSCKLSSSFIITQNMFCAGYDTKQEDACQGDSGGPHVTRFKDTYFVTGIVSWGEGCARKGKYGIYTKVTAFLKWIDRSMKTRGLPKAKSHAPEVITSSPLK
Measure: kcat (s⁻¹)
Give bare numbers, in s⁻¹.

The reported kcat of the protein FIXa-Y155F/K247N/N249S/R338E/R403E/E410N (protein) chain 1: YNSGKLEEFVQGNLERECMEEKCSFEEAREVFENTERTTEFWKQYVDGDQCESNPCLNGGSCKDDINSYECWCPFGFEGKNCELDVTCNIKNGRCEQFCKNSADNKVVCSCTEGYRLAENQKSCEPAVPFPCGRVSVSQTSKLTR chain 2: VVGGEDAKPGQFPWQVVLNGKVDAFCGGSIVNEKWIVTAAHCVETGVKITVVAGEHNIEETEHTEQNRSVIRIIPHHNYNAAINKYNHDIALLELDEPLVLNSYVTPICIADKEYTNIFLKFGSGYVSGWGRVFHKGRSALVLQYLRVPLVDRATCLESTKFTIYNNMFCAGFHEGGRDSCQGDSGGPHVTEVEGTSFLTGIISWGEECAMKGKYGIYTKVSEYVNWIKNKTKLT was 5

The measurements presented in this section are drawn from patent US20210238260.
